src = ChEMBL document CHEMBL3638462

# assayed target: cAMP and cAMP-inhibited cGMP 3',5'-cyclic phosphodiesterase 10A (Homo sapiens, UniProt Q9Y233)
# Sequence (Q9Y233 whole entry): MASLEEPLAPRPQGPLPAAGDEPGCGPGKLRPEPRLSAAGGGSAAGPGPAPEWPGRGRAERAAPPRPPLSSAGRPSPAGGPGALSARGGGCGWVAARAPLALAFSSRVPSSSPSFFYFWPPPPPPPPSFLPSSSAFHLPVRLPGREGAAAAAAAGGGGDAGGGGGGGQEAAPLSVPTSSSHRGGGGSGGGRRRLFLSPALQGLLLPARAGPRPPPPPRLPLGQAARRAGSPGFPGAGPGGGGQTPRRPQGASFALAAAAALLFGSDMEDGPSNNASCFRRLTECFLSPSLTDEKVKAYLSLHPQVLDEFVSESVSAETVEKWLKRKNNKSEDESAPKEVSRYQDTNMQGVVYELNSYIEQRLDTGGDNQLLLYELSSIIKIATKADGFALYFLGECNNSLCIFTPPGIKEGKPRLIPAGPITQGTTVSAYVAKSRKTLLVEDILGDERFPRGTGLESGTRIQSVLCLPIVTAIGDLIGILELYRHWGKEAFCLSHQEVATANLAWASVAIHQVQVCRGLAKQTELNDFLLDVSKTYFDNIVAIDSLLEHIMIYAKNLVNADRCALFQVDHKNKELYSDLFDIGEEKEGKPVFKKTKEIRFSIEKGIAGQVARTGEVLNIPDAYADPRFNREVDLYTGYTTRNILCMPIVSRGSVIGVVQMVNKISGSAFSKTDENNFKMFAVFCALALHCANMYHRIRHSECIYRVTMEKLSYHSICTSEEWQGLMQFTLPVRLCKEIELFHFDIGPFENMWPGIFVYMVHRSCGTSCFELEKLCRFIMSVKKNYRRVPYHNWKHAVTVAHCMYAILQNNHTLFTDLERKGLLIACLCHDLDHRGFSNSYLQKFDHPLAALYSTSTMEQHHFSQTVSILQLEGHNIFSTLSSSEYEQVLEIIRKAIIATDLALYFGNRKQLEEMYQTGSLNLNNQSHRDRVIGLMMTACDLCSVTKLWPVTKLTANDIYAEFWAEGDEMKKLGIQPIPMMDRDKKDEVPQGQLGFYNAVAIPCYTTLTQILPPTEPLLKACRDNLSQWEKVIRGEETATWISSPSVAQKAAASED
endpoint name: IC50 (nM)

Solved cases below.
OC(c1ccc(Oc2ncccc2C2=CCOCC2)cc1)c1nc2ccccc2s1 (stereo not given)    516
c1ccc(-n2ncc3cc(Oc4ncccc4C4CCCCC4)ccc32)nc1    417
C[C@]1(O)CCCC(c2cccnc2Oc2ccc(C(=O)c3nc4ccccc4[nH]3)cc2)C1 (stereo not given in full)    1.22

I. O=C(c1ccc(Oc2ncccc2Br)cc1)c1nc2ccccc2s1
II. O=C1C=C(c2cccnc2Oc2ccc(Nc3nc4ccccc4s3)cc2)CC1
III. O=C(c1ccc(Oc2ncccc2N2CCOCC2)cc1)c1nc2ccccc2[nH]1
IV. O=C(c1ccc(Oc2ncccc2C2CCS(=O)(=O)CC2)cc1)c1nc2ccccc2[nH]1
V. CC(=O)N1CCCC[C@@H]1c1cccnc1Oc1ccc(C(=O)c2nc3ccccc3[nH]2)cc1
Could you please order the items by IC50, going from the lowest number to the highest? Field: ranking. Enter the labels in the order requested.
V, IV, III, II, I
(V: 0.0645 nM, IV: 0.631 nM, III: 1.59 nM, II: 2.84 nM, I: 3940 nM)

I. C1=C(c2cccnc2Oc2ccc(Nc3nc4ccccc4s3)cc2)CCOC1
II. C1=CO[C@H](c2cccnc2Oc2ccc(Nc3nc4ccccc4s3)cc2)CC1
Which has the smaller recorded IC50, I or II ? Answer by quoting the chosen item's label.
I
